# STUDY SYSTEM: T1, Proteinase-Activated Receptor-2 (human, on human keratinocytes) (human, UniProt P55085 37-397)
# T1 sequence (looked up): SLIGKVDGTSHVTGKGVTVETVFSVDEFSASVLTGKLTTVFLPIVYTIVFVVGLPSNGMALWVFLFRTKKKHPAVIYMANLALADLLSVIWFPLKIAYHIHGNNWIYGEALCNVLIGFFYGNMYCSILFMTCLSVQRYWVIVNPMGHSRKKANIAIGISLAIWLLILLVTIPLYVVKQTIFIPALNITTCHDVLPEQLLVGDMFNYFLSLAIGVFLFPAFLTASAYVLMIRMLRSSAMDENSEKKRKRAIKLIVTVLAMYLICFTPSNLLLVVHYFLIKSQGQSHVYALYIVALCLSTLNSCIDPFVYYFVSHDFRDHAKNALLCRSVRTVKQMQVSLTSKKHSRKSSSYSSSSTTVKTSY
# ASSAY NAME: cell-based or functional assay
Entry flag: Y if Inhibition PAR-2 activity (calcium fluorescence, human keratinocytes, peptide at 1 mg/mL) reaches 70%; N if it does not.

{"columns": ["BINDER", "CLASS NAME"],
 "data": [
  ["Ac-SFQFIV-NH2 [Ac-L-Ser-L-Phe-L-Gln-L-Phe-L-Ile-L-Val-NH2]", "N"],
  ["Ac-FMWDIV-NH2 [Ac-L-Phe-L-Met-L-Trp-L-Asp-L-Ile-L-Val-NH2]", "Y"],
  ["Ac-SMWFHV-NH2 [Ac-L-Ser-L-Met-L-Trp-L-Phe-L-His-L-Val-NH2]", "N"],
  ["Ac-SMRFIV-NH2 [Ac-L-Ser-L-Met-L-Arg-L-Phe-L-Ile-L-Val-NH2]", "Y"],
  ["Ac-FMWFIV-NH2 [Ac-L-Phe-L-Met-L-Trp-L-Phe-L-Ile-L-Val-NH2]", "N"],
  ["Ac-SFRFIV-NH2 [Ac-L-Ser-L-Phe-L-Arg-L-Phe-L-Ile-L-Val-NH2]", "N"],
  ["Ac-FMRDHS-NH2 [Ac-L-Phe-L-Met-L-Arg-L-Asp-L-His-L-Ser-NH2]", "N"],
  ["Ac-SMQFIV-NH2 [Ac-L-Ser-L-Met-L-Gln-L-Phe-L-Ile-L-Val-NH2]", "N"]
]}
